# Tested on: Fibroblast
# test-description: Multiplex assay against human fibroblast
# Type: toxicity, cell-based
# conditions: 24 h, 10 µM, compound concentration 10 uM, replicate 1
attribute-measured: Population Membrane Permeable-Phenotype (%)

>>> numeric_value("CC(/C=C1\\SC(=S)N(CCCC(=O)Nc2ccc(C(=O)O)c(O)c2)C1=O)=C\\c1ccccc1")
0
>>> numeric_value("O=C1[C@H](Cc2ccc(O)cc2)N2C(=O)CCN(C(=O)NCc3ccccc3)[C@H]2CN1Cc1cccc2ccccc12")
1
>>> numeric_value("COC[C@@H](c1ccc(C(F)(F)F)cc1)N1CCN(C2(C)CCN(C(=O)c3c(C)ncnc3C)CC2)C[C@@H]1C.O=C(O)/C=C\\C(=O)O [VICRIVIROC MALEATE]")
0
>>> numeric_value("Cc1onc(-c2ccccc2Cl)c1C(=O)N(C)c1ccc(Cl)cc1")
1
>>> numeric_value("Cc1noc(-c2ccc(-c3ccc(CC(=O)O)cc3)cc2)c1NC(=O)O[C@H](C)c1ccccc1Cl")
0
>>> numeric_value("CCCCC(=O)N(Cc1ccc(-c2ccccc2-c2nnn[nH]2)cc1)[C@H](C(=O)O)C(C)C")
0
>>> numeric_value("CC(C)COc1ccc(CNC(=O)N(Cc2ccc(F)cc2)C2CCN(C)CC2)cc1")
0
>>> numeric_value("CC(=O)Nc1cccc2c1c(Sc1ccc(Cl)cc1)c(C)n2CC(=O)O")
2

----------
# System: HEK-293T
# test-description: Multiplex assay against HEK293T
# Type: toxicity, cell-based
# conditions: human, 12 h, 10 µM, compound concentration 10 uM, replicate 1
Criterion: Total Cell Count strictly under 400. Met: Y. Not met: N.

>>> group("Cl.NCCc1ccc(O)c(O)c1 [DOPAMINE HYDROCHLORIDE]")
"Y"
>>> group("C[C@H](N)COC(=O)[C@@H](CCCCN)NC(=O)Cc1c(-c2ccc3ccccc3c2)[nH]c2c1ccc1ccccc12")
"N"
>>> group("CCCCC(=O)N(Cc1ccc(-c2ccccc2-c2nnn[nH]2)cc1)[C@H](C(=O)O)C(C)C")
"N"
>>> group("CC(C)c1noc(N2CCC(COc3ccc(-c4ccc(S(C)(=O)=O)cc4)nc3)CC2)n1")
"Y"
>>> group("CN(C)C(=O)Cn1cc(-c2ccc(-c3cncc4ccccc34)cc2)cn1")
"Y"
>>> group("Cc1sc2c(c1C)C(c1ccc(Cl)cc1)=N[C@@H](CC(=O)NCCCCCCCCNC(=O)COc1cccc3c1C(=O)N(C1CCC(=O)NC1=O)C3=O)c1nnc(C)n1-2 (stereo not given in full)")
"Y"
>>> group("CN[C@@H](C)C(=O)N[C@H](C(=O)N1CCC[C@H]1C(=O)Nc1snnc1-c1ccccc1)C1CCCCC1")
"Y"
>>> group("Br.CS(=O)(=O)Nc1c(O)ccc2c1CCCC2C1=NCCN1 (stereo not given)")
"Y"
>>> group("CC[C@@H](C)Nc1nc(C)nc2c(-c3ccc(OC)nc3C)c(C)nn12")
"N"
>>> group("Cc1onc(-c2ccccc2Cl)c1C(=O)N(C)c1ccc(Cl)cc1")
"Y"
>>> group("COc1cccc2c1c(NS(=O)(=O)c1ccc(Cl)s1)nn2Cc1cccc(CNC(=O)C(C)(C)O)c1")
"Y"
>>> group("Cc1cccc(NC(=O)CN2CCC(c3ccccn3)CC2)c1.Cl.Cl")
"Y"
>>> group("O=C(NCCN1CCC(n2c(=O)[nH]c3cc(Cl)ccc32)CC1)c1ccc(F)cc1 [HALOPEMIDE]")
"N"
>>> group("N#Cc1c(Oc2cccc(OS(=O)(=O)CCCC(F)(F)F)c2)cccc1C(F)(F)F")
"Y"
>>> group("N#Cc1cc(F)cc(-c2nc(-c3ccc(F)cn3)no2)c1")
"Y"
>>> group("NCCc1cn(S(=O)(=O)c2c(Cl)nc3sccn23)c2ccccc12.O=C(O)C(=O)O")
"Y"
>>> group("Cc1noc(-c2ccc(-c3ccc(CC(=O)O)cc3)cc2)c1NC(=O)O[C@H](C)c1ccccc1Cl")
"Y"
>>> group("COc1ccccc1N1CCN(C[C@@H](C(=O)NC(C)(C)C)c2ccccc2)CC1.Cl.Cl")
"Y"
